The reader will find pKi measurements below, all made with SSTR2 (Rattus norvegicus).
Positions of bridges follow the written chain, without caps; N, C: chain ends. Non-standard residues stand in square brackets, D forms with d. Residues, ends and D or L forms follow the SMILES beside them. 2Nal = N[C@@H](Cc1ccc2ccccc2c1)C(=O)O
# pKi: negative log10 of molar concentration; output just the value

Exercise: Lookup: pKi / SSTR2 (Rattus norvegicus) / CC(=O)N[C@@H](Cc1ccc2ccccc2c1)C(=O)N[C@@H]1CSSC[C@@H](C(=O)N[C@@H](Cc2ccc(O)cc2)C(N)=O)NC(=O)[C@H]([C@@H](C)O)NC(=O)[C@H](CCCCN)NC(=O)[C@@H](Cc2c[nH]c3ccccc23)NC(=O)[C@H](Cc2ccc(O)cc2)NC1=O [Ac-Nal(2) Tyr Lys Thr Tyr] (Ac-[2Nal][dC]Y[dW]KTCY-NH2; disulfide 2-7 (inferred); N-terminus and C-terminus assumed)
Key: 9.32

Exercise: Also, C[C@@H](O)[C@@H]1NC(=O)[C@H](CCCCN)NC(=O)[C@@H](Cc2c[nH]c3ccccc23)NC(=O)[C@H](Cc2ccc(O)cc2)NC(=O)[C@H](NC(=O)[C@@H](N)Cc2ccc3ccccc3c2)CSSC[C@@H](C(=O)N[C@@H](Cc2ccc(O)cc2)C(N)=O)NC1=O [L-Nal(2) Tyr Lys Thr Tyr] (H-[2Nal][dC]Y[dW]KTCY-NH2; disulfide 2-7 (inferred); N-terminus and C-terminus assumed) please.
Key: 9.40

Exercise: What about C[C@@H](O)[C@@H]1NC(=O)[C@H](CCCCN)NC(=O)[C@@H](Cc2c[nH]c3ccccc23)NC(=O)[C@H](Cc2ccc(O)cc2)NC(=O)[C@H](NC(=O)[C@@H](N)Cc2ccc([N+](=O)[O-])cc2)CSSC[C@@H](C(=O)N[C@@H](Cc2ccc(O)cc2)C(N)=O)NC1=O ?
Key: 8.88

----------
# experimental_target: SSTR2 (Rattus norvegicus, UniProt P30680)
# Sequence (P30680 whole entry): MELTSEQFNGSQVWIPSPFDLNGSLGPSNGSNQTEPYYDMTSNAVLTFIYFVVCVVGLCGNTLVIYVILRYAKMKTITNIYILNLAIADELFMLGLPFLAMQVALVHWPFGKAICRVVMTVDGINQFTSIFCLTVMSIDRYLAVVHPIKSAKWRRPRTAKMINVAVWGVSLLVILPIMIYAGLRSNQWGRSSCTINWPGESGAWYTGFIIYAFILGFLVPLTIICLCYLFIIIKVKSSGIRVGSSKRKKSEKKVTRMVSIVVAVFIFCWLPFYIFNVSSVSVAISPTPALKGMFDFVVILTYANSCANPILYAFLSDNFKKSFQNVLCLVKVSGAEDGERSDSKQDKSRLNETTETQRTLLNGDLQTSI
Positions of bridges follow the written chain, without caps; N, C: chain ends. Non-standard residues stand in square brackets, D forms with d. Residues, ends and D or L forms follow the SMILES beside them. NMePhe(4-NO2) = CN[C@@H](Cc1ccc([N+](=O)[O-])cc1)C(=O)O; Phe(4-NO2) = N[C@@H](Cc1ccc([N+](=O)[O-])cc1)C(=O)O; 2Nal = N[C@@H](Cc1ccc2ccccc2c1)C(=O)O
experimental_endpoint: pIC50
Entry type: numeric. Quantity: pIC50, the -log10 of concentration in molar units.

Exercise: For CN[C@@H](Cc1ccc([N+](=O)[O-])cc1)C(=O)N[C@@H]1CSSC[C@@H](C(=O)N[C@@H](Cc2ccc(O)cc2)C(N)=O)NC(=O)[C@H](C(C)C)NC(=O)[C@H](CCCCN)NC(=O)[C@@H](Cc2c[nH]c3ccccc23)NC(=O)[C@H](Cc2ccc(O)cc2)NC1=O [NMe-4-NO2 Phe Tyr Lys Val Tyr] (H-[NMePhe(4-NO2)][dC]Y[dW]KVCY-NH2; disulfide 2-7 (inferred); N-terminus and C-terminus assumed) , what is its reported pIC50?
Key: 8.22

Exercise: Would you kindly repeat that for CC(C)[C@@H]1NC(=O)[C@H](CCCCN)NC(=O)[C@@H](Cc2c[nH]c3ccccc23)NC(=O)[C@H](Cc2ccc(O)cc2)NC(=O)[C@H](NC(=O)[C@@H](N)Cc2ccc([N+](=O)[O-])cc2)CSSC[C@@H](C(=O)N[C@@H](Cc2ccc3ccccc3c2)C(N)=O)NC1=O [4-NO2 Phe Tyr Lys Val Nal(2)] (H-[Phe(4-NO2)][dC]Y[dW]KVC[2Nal]-NH2; disulfide 2-7 (inferred); N-terminus and C-terminus assumed) ?
Key: 8.15

Exercise: Would you mind doing CC(=O)N[C@@H](Cc1ccc2ccccc2c1)C(=O)N[C@@H]1CSSC[C@@H](C(=O)N[C@@H](Cc2ccc(O)cc2)C(N)=O)NC(=O)[C@H]([C@@H](C)O)NC(=O)[C@H](CCCCN)NC(=O)[C@@H](Cc2c[nH]c3ccccc23)NC(=O)[C@H](Cc2ccc(O)cc2)NC1=O [Ac-Nal(2) Tyr Lys Thr Tyr] (Ac-[2Nal][dC]Y[dW]KTCY-NH2; disulfide 2-7 (inferred); N-terminus and C-terminus assumed) as well?
Key: 9.00
